# Assay method text: Antifibrotic activity in rat 1097 cells assessed as inhibition of TGF-beta-stimulated [3H]proline incorporation in to collagen at 30 uM
# Type: functional
Observed property: inhibition at 30 µM
Answer by giving the amount and then stating its unit.

Form field: reported inhibition at 30 µM of "C#CCOc1cc(/C=C/C(=O)Nc2ccccc2C(=O)O)ccc1OC"
60%

Form field: reported inhibition at 30 µM of COc1ccc(/C=C/C(=O)Nc2ccccc2C(=O)O)cc1OC [TRANILAST]
40%

Form field: reported inhibition at 30 µM of "C#CCCCCOc1ccc(/C=C/C(=O)Nc2ccccc2C(=O)O)cc1OC"
80%

Form field: reported inhibition at 30 µM of "C#CCCCOc1cc(/C=C/C(=O)Nc2ccccc2C(=O)O)ccc1OC"
80%

Form field: reported inhibition at 30 µM of "CCC#CCOc1cc(/C=C/C(=O)Nc2ccccc2C(=O)O)ccc1OC"
90%

Form field: reported inhibition at 30 µM of "COc1cc(/C=C/C(=O)Nc2ccccc2C(=O)O)ccc1OC1CCCC1"
100%

Form field: reported inhibition at 30 µM of "C#CCCOc1ccc(/C=C/C(=O)Nc2ccccc2C(=O)O)cc1OC"
70%

Form field: reported inhibition at 30 µM of "CCC#CCCOc1cc(/C=C/C(=O)Nc2ccccc2C(=O)O)ccc1OC"
100%

Form field: reported inhibition at 30 µM of "C#CCCOc1cc(/C=C/C(=O)Nc2ccccc2C(=O)O)ccc1OC"
65%

Form field: reported inhibition at 30 µM of "C#CCCCCOc1cc(/C=C/C(=O)Nc2ccccc2C(=O)O)ccc1OC"
95%

Form field: reported inhibition at 30 µM of "CCC#CCCOc1ccc(/C=C/C(=O)Nc2ccccc2C(=O)O)cc1OC"
100%

Form field: reported inhibition at 30 µM of "C#CCCCOc1ccc(/C=C/C(=O)Nc2ccccc2C(=O)O)cc1OC"
75%

Form field: reported inhibition at 30 µM of C#CCOc1ccc(/C=C/C(=O)Nc2ccccc2C(=O)O)cc1OC [ASENGEPRAST]
55%

Form field: reported inhibition at 30 µM of "CCC#CCOc1ccc(/C=C/C(=O)Nc2ccccc2C(=O)O)cc1OC"
100%

Form field: reported inhibition at 30 µM of "CC#CCOc1cc(/C=C/C(=O)Nc2ccccc2C(=O)O)ccc1OC"
75%

Form field: reported inhibition at 30 µM of "CC#CCOc1ccc(/C=C/C(=O)Nc2ccccc2C(=O)O)cc1OC"
65%
